assay: Photophysical measurements (absorption, emission, lifetime, quantum yield) in diluted solutions; format: physicochemical; conditions: DCM, 298K, 10^−5 M

compound	Emission λem / nm
C[n+]1nc2[n](n1)[Ir]13([c]4ccccc4-c4cccc[n+]41)([c]1ccccc1-c1cccc[n+]13)[n+]1cc(-c3ccc(C#N)cc3)ccc1-2 [[Ir(ppy)2(MeTzPyPhCN)]^+]	600
C[n+]1nc2[n](n1)[Ir]13([c]4ccccc4-c4cccc[n+]41)([c]1ccccc1-c1cccc[n+]13)[n+]1cc(C#N)ccc1-2 [[Ir(ppy)2(MeTzPyCN)]^+]	680
c1cc[c]2c(c1)-c1cccc[n+]1[Ir]213([c]2ccccc2-c2cccc[n+]21)[n]1nnnc1-c1ccc2ccccc2[n+]13 [[Ir(ppy)2(TzQn)]]	580
